# experimental.system: recombinant human PDE4B (Homo sapiens (Human))
# Sequence (Q07343 305-736 limits assumed): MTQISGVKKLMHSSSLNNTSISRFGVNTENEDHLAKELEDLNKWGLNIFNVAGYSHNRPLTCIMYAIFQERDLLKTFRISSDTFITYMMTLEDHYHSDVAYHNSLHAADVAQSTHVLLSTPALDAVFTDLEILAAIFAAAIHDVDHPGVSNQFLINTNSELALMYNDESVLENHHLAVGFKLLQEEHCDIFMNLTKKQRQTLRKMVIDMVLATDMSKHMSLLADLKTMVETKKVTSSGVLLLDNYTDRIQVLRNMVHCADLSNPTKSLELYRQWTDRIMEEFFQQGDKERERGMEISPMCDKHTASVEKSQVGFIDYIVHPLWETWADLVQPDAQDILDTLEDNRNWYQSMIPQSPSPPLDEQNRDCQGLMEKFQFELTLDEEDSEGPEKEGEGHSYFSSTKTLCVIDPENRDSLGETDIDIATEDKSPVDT
# procedure.details: In vitro inhibitory activity against PDE 4B enzyme (fluorescence polarization)
# measurement.parameters: 1 μM cAMP
# IC50 per record follows

[
  {
    "compound.structure.string": "CCOc1cc2c(cc1OC)-c1c/c(=N\\c3c(C)cc(C)cc3C)n(CCNC(=O)c3cnc[nH]3)c(=O)n1CCC2",
    "experimental.system": "recombinant human PDE4B (Homo sapiens (Human))",
    "IC50": "0.05 nM"
  },
  {
    "compound.structure.string": "CCOc1cc2c(cc1OC)-c1c/c(=N\\c3c(C)cc(C)cc3C)n(CCNC(=O)c3[nH]ncc3OC)c(=O)n1CC2",
    "experimental.system": "recombinant human PDE4B (Homo sapiens (Human))",
    "IC50": "1.7 nM"
  },
  {
    "compound.structure.string": "CCOc1cc2c(cc1OC)-c1c/c(=N\\c3c(C)cc(C)cc3C)n(CCNC(=O)c3cnn[nH]3)c(=O)n1CCC2",
    "experimental.system": "recombinant human PDE4B (Homo sapiens (Human))",
    "IC50": "0.27 nM"
  },
  {
    "compound.structure.string": "CCOc1cc2c(cc1OC)-c1c/c(=N\\c3c(C)cc(C)cc3C)n(CCNC(=O)c3ccn[nH]3)c(=O)n1CCC2",
    "experimental.system": "recombinant human PDE4B (Homo sapiens (Human))",
    "IC50": "0.24 nM"
  }
]
